ASSAY_DETAILS: activity coefficient (dimensionless); of the first substance listed, at infinite dilution; xn = mol fraction of the nth substance listed
RECORDED_CONDITIONS: 308.15 K; 100 kPa; Liquid; Chromatography; x1 = 0
Listing of recorded activity coefficient by entry.

Recorded results for 6 compounds are shown here.
[[record]]
compound = "C1CCCCCCC1 [cyclooctane] + CCCC[n+]1ccc(C#N)cc1.O=S(=O)([N-]S(=O)(=O)C(F)(F)F)C(F)(F)F"
value_observed = 26.5

[[record]]
compound = "C#CCCCC [1-hexyne] + CCCC[n+]1ccc(C#N)cc1.O=S(=O)([N-]S(=O)(=O)C(F)(F)F)C(F)(F)F"
value_observed = 4.81

[[record]]
compound = "CC(C)c1ccccc1 [isopropylbenzene] + CCCC[n+]1ccc(C#N)cc1.O=S(=O)([N-]S(=O)(=O)C(F)(F)F)C(F)(F)F"
value_observed = 4.04

[[record]]
compound = "c1ccsc1 [thiophene] + CCCC[n+]1ccc(C#N)cc1.O=S(=O)([N-]S(=O)(=O)C(F)(F)F)C(F)(F)F"
value_observed = 0.916

[[record]]
compound = "CCCCCCCCC [nonane] + CCCC[n+]1ccc(C#N)cc1.O=S(=O)([N-]S(=O)(=O)C(F)(F)F)C(F)(F)F"
value_observed = 92.9

[[record]]
compound = "C=C(C)c1ccccc1 [(1-methylethenyl)benzene] + CCCC[n+]1ccc(C#N)cc1.O=S(=O)([N-]S(=O)(=O)C(F)(F)F)C(F)(F)F"
value_observed = 1.94


From here, focus on the item given below.
Request: Identify measured activity coefficient corresponding to C#CCCCCC [1-heptyne] + CCCC[n+]1ccc(C#N)cc1.O=S(=O)([N-]S(=O)(=O)C(F)(F)F)C(F)(F)F
Result: 6.92
